Assay Name: in vitro
Test Conditions: human
Assay Metric: viability at 2 h, 1 µM (%)

INSERT INTO measurements (input_smiles, assay_metric, reported) VALUES
  ('O=C(O)Cc1cc(I)c(Oc2ccc(O)c(I)c2)c(I)c1', 'viability at 2 h, 1 µM', 109);

* * *

Assay Name: WST-1 cytotoxicity, wildtype U2OS cells
Test Conditions: human
Assay Metric: viability at 100 µM (%)

INSERT INTO measurements (input_smiles, assay_metric, reported) VALUES
  ('COc1cc(C(=O)NS(=O)(=O)c2ccccc2C)ccc1Cc1cn(C)c2ccc(NC(=O)OC3CCCC3)cc12', 'viability at 100 µM', 73),
  ('Cc1c(Cl)cccc1Nc1ccccc1C(=O)O', 'viability at 100 µM', 82.1);

* * *

Here, each record is paired with measured Ranking score data.
Experimental Target: human NTCP (Homo sapiens)
Sequence (Q14973 whole entry): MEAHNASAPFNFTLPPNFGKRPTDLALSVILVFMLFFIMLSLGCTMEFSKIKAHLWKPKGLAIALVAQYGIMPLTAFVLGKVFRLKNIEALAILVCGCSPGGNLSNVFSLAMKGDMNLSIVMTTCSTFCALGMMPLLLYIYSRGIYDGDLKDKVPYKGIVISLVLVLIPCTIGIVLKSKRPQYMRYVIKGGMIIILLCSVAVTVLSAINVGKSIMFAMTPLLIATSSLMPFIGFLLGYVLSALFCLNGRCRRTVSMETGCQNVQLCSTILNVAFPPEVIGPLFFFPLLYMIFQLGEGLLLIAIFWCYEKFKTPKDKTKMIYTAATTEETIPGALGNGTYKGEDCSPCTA
Assay Name: Screening taurocholate uptake assay (96-well, [14C]taurocholate, 10 µM drug)
Test Conditions: combined ranking from functional and binding screening assays
Assay Metric: Ranking score

INSERT INTO assay_data (molecule, reported) VALUES
  ('CC(=O)OCC(=O)[C@@]1(OC(C)=O)[C@@H](C)C[C@H]2[C@@H]3C[C@H](F)C4=CC(=O)C=C[C@]4(C)[C@@]3(F)[C@@H](O)C[C@@]21C [Diflorasone Diacetate]', 327.658),
  ('CC(=O)Oc1cc(C(C)C)c(OCCN(C)C)cc1C.Cl [Moxisylyte hydrochoride]', 375.319),
  ('c1ccc(CNc2ncnc3[nH]cnc23)cc1', 337.92),
  ('CCCCC(O)c1ccccc1 (stereo not shown)', 460.361);

* * *

Experimental Target: UniProt:Q14973
Assay Name: Screening taurocholate uptake assay (96-well, [14C]taurocholate, 10 µM drug)
Test Conditions: combined ranking of functional and binding screening assays
Counter-ions that a name gives are not always drawn.
So basically, if Ranking score comes in under 600 it's class 1, and if it's 600 or more it's class 0.

INSERT INTO assay_data (compound, group) VALUES
  ('CN1CCN(C(c2ccccc2)c2ccc(Cl)cc2)CC1 (centres unmarked) [Chlorcyclizine hydrochloride]', 'class 0'),
  ('CN(C)CCN1C(=O)c2ccccc2N(C)c2ccccc21.Cl [Dibenzepine hydrochloride]', 'class 1'),
  ('CN1CCN(c2c(F)cc3c(=O)c(C(=O)O)cn4c3c2SCC4)CC1 [Rufloxacin]', 'class 1'),
  ('CC(CN(C)C)C(C)(O)Cc1ccc(Cl)cc1.Cl (centres unmarked) [Clobutinol hydrochloride]', 'class 1'),
  ('CN(C(=O)CN(CCO)CC(=O)N(C)C(C)(C)Cc1ccccc1)C(C)(C)Cc1ccccc1 [Oxethazaine]', 'class 0'),
  ('COc1ccccc1OCC(O)COC(N)=O (centres unmarked) [Methocarbamol]', 'class 1'),
  ('COc1ccc([C@@H]2CC(=O)c3c(O)cc(O[C@@H]4O[C@H](CO[C@@H]5O[C@@H](C)[C@H](O)[C@@H](O)[C@H]5O)[C@@H](O)[C@H](O)[C@H]4O)cc3O2)cc1O [Hesperidin]', 'class 1'),
  ('Cc1ccnc2c1NC(=O)c1cccnc1N2C1CC1 [Nevirapine]', 'class 1'),
  ('CN(C)CCC[C@@]1(c2ccc(F)cc2)OCc2cc(C#N)ccc21 [Escitalopram oxalate]', 'class 1'),
  ('CO[C@@]1(NC(=O)C(C(=O)O)c2ccc(O)cc2)C(=O)N2C(C(=O)O)=C(CSc3nnnn3C)CO[C@@H]21 (some centres unmarked) [Moxalactam disodium salt]', 'class 0'),
  ('Cc1cc(C(=O)NNCc2ccccc2)no1 [Isocarboxazid]', 'class 1'),
  ('Clc1cc(Cl)c(OCC#CI)cc1Cl [Haloprogin]', 'class 0'),
  ('CN(CCOc1ccc(NS(C)(=O)=O)cc1)CCc1ccc(NS(C)(=O)=O)cc1 [Dofetilide]', 'class 0');
